Taken from paper PMC9352680.

# TARGET OR TEST SYSTEM: T1, PUF4 RNA-binding domain (Saccharomyces cerevisiae, UniProt P25339 537-888)
# T1 sequence: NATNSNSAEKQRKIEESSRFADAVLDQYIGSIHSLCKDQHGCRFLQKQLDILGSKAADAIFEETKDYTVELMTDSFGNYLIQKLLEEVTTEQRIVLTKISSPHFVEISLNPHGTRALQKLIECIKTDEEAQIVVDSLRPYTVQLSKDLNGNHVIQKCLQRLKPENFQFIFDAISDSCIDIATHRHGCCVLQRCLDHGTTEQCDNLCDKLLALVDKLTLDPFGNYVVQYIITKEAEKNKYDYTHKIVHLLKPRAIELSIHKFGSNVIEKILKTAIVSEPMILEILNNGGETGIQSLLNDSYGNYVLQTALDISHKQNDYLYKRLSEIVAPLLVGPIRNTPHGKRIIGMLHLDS
# TEST METHOD NOTES: Mg; RNA-MaP; 20 mM Na-HEPES pH 7.4, 30 mM KOAc, 0.75 mM MgCl2, 0.1% Tween-20, 5% glycerol, 0.1 mg/mL BSA, 2 mM DTT; 25 C; 0.0125-409.6 nM protein
# MEASUREMENT CONTEXT: tags: N-His6-TEV cleaved; C-SNAP kept, Cy3B-labelled; label: tethered on chip by stalled RNA polymerase
pKd: −log10 of the molar value.

| BINDER | pKd |
| --- | --- |
| ACAAACCCUAUAUAUUAUUACAAAC (ssRNA) [Id_ii_S3_P4E.3_K4.2_C4.2_[T-1C]_H4.2_A4.1_F4.1_T4.2_[G10T]] | 7.88 |
| Id_ii_S4_P3E.2_K3.1_C3.2_[C-2G]_[T-1C]_H3.1_A3.1_F3.1_T3.2_[T9C]_[A10C] (ssRNA) RNA: UUUGACAACUGAUCGUUCUUUCUGCUGUAUAUACCUUCUUUCUCGAUCAGUUGUCUUU | 7.98 |
| Ic_S2_P4E.1_K4.1_C4.1_H4.1_A4.1_[T5C]_[A6T]_[T7C]_F4.1_[T8A]_[A9T]_T4.1 (ssRNA) RNA: UUUGAUUAAUAUGAUAUCGUUCUUUCUUGUACUCAUUUCUUUCUCGAUAUCAUAUUAAUCUUU | 7.16 |
| UCUCUUGCUAUAUAUAUGUCUCUU (ssRNA) [Id_ii_S1_P3E.3_K3.2_C3.2_[C-2G]_[T-1C]_H3.2_A3.1_F3.1_T3.2_[A10G]] | 6.12 |
| Id_iii_S4_P3E.7_K3.3_C3.3_H3.3_A3.1_F3.1_T3.2_[A10C] (ssRNA) RNA: UUUGACAACUGAUCGUUCUUUCUUCUACACUAUAUCUUCUUUCUCGAUCAGUUGUCUUU | 6.21 |
| Id_ii_S2_P3E.3_K3.2_C3.2_[T-1C]_H3.2_A3.1_F3.1_T3.2_[T9C]_[A10C] (ssRNA) RNA: UUUGAUUAAUAUGAUAUCGUUCUUUCUCCUAUAUAUACCUUCUUUCUCGAUAUCAUAUUAAUCUUU | 6.61 |
